Test system: Candida albicans ATCC 90028, disc diffusion zone, 24 h
TEST_DETAILS: Candida albicans growth inhibition, late-stage follow-up, TPT1 inhibitor project, disc diffusion, zone diameter (AID 434975)
RUN_PARAMETERS: at 10 mM
Active and inactive are the calls of the source.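 Rule for the calls: active = inhibition zone diameter above 0 mm; inactive = zone diameter of 0 mm or less.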
Reply using exactly one outcome from 1.0 (active), 0.0 (inactive)

Fill in: this test's call for Cc1cc(C)n(Cc2ccc(C(=O)NN=Cc3ccc(-c4ccc([N+](=O)[O-])cc4)o3)o2)n1 is ___
0.0

Fill in: this test's call for O=c1oc2c(O)c(O)cc3c(=O)oc4c(O)c(O)cc1c4c23 is ___
0.0

Fill in: this test's call for OC(Cn1cncn1)(Cn1cncn1)c1ccc(F)cc1F is ___
1.0

Fill in: this test's call for CC1=C(C#N)C(=O)N(C2CCS(=O)(=O)C2)C(=O)/C1=C\c1ccco1 (stereo not drawn) is ___
0.0

Fill in: this test's call for NC(=O)c1cc[n+](CC2=C(C(=O)O)N3C(=O)[C@@H](NC(=O)C(c4ccccc4)S(=O)(=O)O)[C@H]3SC2)cc1 (stereo partly drawn) is ___
0.0

Fill in: this test's call for COc1ccc(OC)c(N2C(=O)/C(=C/c3ccco3)C(=O)NC2=S)c1 is ___
0.0

Further cases:
Fill in: this test's call for Cc1ccc(N2C(=O)NC(=O)/C(=C\c3ccc([N+](=O)[O-])o3)C2=O)cc1 is ___
1.0

Fill in: this test's call for Cc1ccccc1N1C(=O)/C(=C/c2ccco2)C(=O)NC1=S is ___
0.0
